- Run Description: recombinant barcode read abundance after kanamycin selection (control-corrected) (log10(CPM+1)); higher = more efficient recombination; sequences stand for … in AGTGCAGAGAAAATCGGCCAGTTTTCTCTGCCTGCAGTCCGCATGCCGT…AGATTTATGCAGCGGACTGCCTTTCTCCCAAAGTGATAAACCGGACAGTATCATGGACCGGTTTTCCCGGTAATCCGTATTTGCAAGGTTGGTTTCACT; site = the 11-nt target;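 further: IS621 recombinase and bridge RNA in Escherichia coli cells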
Definition: the class of an entry is the range in lower segment: < 0.02; middle segment: ≥ 0.02 and < 0.08; upper segment: ≥ 0.08 that contains its recombinant barcode read abundance (log10).

Solved cases below.
TGACCCTCTTGGGTTCTAACCTGTTGCCT (site GGACCCTCTAG) : middle segment
TAGCCGACTTGGGTTCTAACCTGTTGCCT (site TAGCTGACTAG) : lower segment
CAAACACCTTGGGTTCTAACCTGTTGCCT (site CAAACAACTAG) : middle segment
CTTCAACCTTGGGTTCTAACCTGTTGCCT (site CTTCAGCCTAG) : middle segment
TGGTCTACTTGGGTTCTAACCTGTTGCTT (site TGATCTACTAA) : lower segment
ACGTAACCTTGGGTTCTAACCTGTTGCCT (site GTAACTACTGA) : upper segment
TACCGGCCTTGGGTTCTAACCTGTTGCCT (site TATCGGCCTAG) : upper segment
GACACGCCTTGGGTTCTAACCTGTTGCGT (site GACACGCCTAG) : upper segment

Entry TGAGTCCCTTGGGTTCTAACCTGTTGCTA (site TGGGTCCCTAA) belongs to which category?
lower segment

Entry CATTGGACTTGGGTTCTAACCTGTTGCTT (site TATTGGACTAA) belongs to which category?
upper segment
